# Target system: N1P2 (NHERF1 PDZ domain 2) (Homo sapiens, UniProt O14745)
# Sequence (O14745 154-234 limits assumed): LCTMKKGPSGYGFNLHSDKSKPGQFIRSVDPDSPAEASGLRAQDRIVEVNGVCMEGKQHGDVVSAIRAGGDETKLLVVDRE
# Measurement description: Fluorescence polarization
# Format: binding
No end group written: not given here.
Measure name: Ki

Short answer for SRWPTSII [iCAL36_8] : Ki was > 5 mM
